Please respond with reported Excision efficiency by ddPCR (Vehicle) for every item in the list.
test system: CTG repeat in the 3′ UTR of human DMPK gene; experiment: Dual-cut screening: CTG repeat excision efficiency by loss-of-signal ddPCR; type: cell-based; conditions: sgRNA pair; primary DM1 patient myoblasts; vehicle (DMSO)
Give bare numbers.

Consider the worked cases shown below.
substance	Excision efficiency by ddPCR (Vehicle)
SluU08 + SluD06 (guide 1 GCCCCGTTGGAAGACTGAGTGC; guide 2 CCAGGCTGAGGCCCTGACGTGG; guide RNA; listed as DNA, chemistry not fully specified)	46.6
SluU08 + SluD56 (guide 1 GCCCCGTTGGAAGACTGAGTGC; guide 2 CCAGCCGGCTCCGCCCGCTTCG; guide RNA; listed as DNA, chemistry not fully specified)	32.16

Alright, here's another substance for you.
// lookup Excision efficiency by ddPCR (Vehicle) for SluU63 + SluD100 (guide 1 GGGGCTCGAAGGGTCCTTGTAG; guide 2 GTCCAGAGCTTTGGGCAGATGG; guide RNA; listed as DNA, chemistry not fully specified)
58.24
